target: Sodium-dependent noradrenaline transporter (Homo sapiens, UniProt P23975); also: assay procedure not described here
Sequence (P23975 whole entry): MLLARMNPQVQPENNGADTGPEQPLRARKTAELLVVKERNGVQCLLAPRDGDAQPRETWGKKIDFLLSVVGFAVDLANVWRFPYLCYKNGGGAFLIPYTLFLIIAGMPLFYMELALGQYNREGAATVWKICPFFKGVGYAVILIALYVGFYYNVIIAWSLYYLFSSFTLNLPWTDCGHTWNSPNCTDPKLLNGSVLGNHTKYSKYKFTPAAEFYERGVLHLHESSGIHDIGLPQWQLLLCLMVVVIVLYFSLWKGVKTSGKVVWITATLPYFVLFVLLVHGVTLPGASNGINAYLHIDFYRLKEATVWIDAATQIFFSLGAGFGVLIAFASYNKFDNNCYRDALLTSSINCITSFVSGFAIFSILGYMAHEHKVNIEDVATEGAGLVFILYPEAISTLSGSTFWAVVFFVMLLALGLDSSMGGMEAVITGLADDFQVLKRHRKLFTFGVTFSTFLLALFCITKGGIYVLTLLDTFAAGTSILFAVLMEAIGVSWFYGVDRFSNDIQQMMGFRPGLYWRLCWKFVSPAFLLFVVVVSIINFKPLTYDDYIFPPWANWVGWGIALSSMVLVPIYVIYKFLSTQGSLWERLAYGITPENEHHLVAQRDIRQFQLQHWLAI
measured_endpoint: AC50

Value wanted: AC50 (Sodium-dependent noradrenaline transporter (Homo sapiens, UniProt P23975)) of entry CC(C)N(CCC(C(N)=O)(c1ccccc1)c1ccccn1)C(C)C (centres undefined) [DISOPYRAMIDE]
> 30 µM

Request: "Oc1ccc2c(c1)[C@@]13CCCC[C@@]1(O)[C@@H](C2)N(CC1CCC1)CC3"
> 30 µM

Request: "Cc1noc(NS(=O)(=O)c2ccc(N)cc2)c1C"
> 10 µM

Request: "NC(=O)CN1CCCC1=O"
> 30 µM

Request: "C[C@H](CCC(=O)O)[C@H]1CC[C@H]2[C@@H]3[C@@H](O)C[C@@H]4C[C@H](O)CC[C@]4(C)[C@H]3CC[C@]12C"
> 30 µM

Request: "C[C@@H](NCCCc1cccc(C(F)(F)F)c1)c1cccc2ccccc12"
7.2 µM

Request: "CC(C)c1nc(N(C)S(C)(=O)=O)nc(-c2ccc(F)cc2)c1/C=C/[C@@H](O)C[C@@H](O)CC(=O)O"
> 30 µM

Request: "CN1C[C@H](C(=O)N[C@]2(C)O[C@@]3(O)[C@@H]4CCCN4C(=O)[C@H](Cc4ccccc4)N3C2=O)C=C2c3cccc4[nH]cc(c34)C[C@H]21"
> 30 µM

Request: "CCCCC1C(=O)N(c2ccccc2)N(c2ccccc2)C1=O"
> 30 µM

Request: "Cn1cnc2c(F)c(Nc3ccc(Br)cc3Cl)c(C(=O)NOCCO)cc21"
> 30 µM

Request: CCCCCC(=O)O[C@]1(C(C)=O)CC[C@H]2[C@@H]3CCC4=CC(=O)CC[C@]4(C)[C@H]3CC[C@@]21C [HYDROXYPROGESTERONE CAPROATE]
> 30 µM

Request: "CCN1CCN(Cc2ccc(Nc3ncc(F)c(-c4cc(F)c5nc(C)n(C(C)C)c5c4)n3)nc2)CC1"
> 30 µM

Request: CC(S)C(=O)NCC(=O)O (centres undefined)
> 30 µM

Request: COc1ccc(CC2c3cc(OC)c(OC)cc3CC[N+]2(C)CCC(=O)OCCCCCOC(=O)CC[N+]2(C)CCc3cc(OC)c(OC)cc3C2Cc2ccc(OC)c(OC)c2)cc1OC (centres undefined)
11.3 µM

Request: CC(C)(C)NCC(O)c1cc(O)cc(O)c1 (centres undefined)
> 30 µM

Request: "CN(C)CC[C@@H](c1ccc(Cl)cc1)c1ccccn1"
18 µM

Request: "C[C@]12CCC(=O)C(O)=C1CC[C@@H]1[C@@H]2CC[C@]2(C)C(=O)CC[C@@H]12"
> 30 µM

Request: "C[C@@H](Oc1cc(-c2cnn(C3CCNCC3)c2)cnc1N)c1c(Cl)ccc(F)c1Cl"
7.96 µM

Request: "COc1ccc(-c2noc(CC(=O)O)c2-c2ccc(OC)cc2)cc1"
> 30 µM

Request: "Nc1ncn([C@H]2C[C@H](O)[C@@H](CO)O2)c(=O)n1"
> 30 µM

Request: "CCC[C@H](NC(=O)[C@@H]1[C@H]2CCC[C@H]2CN1C(=O)[C@@H](NC(=O)[C@@H](NC(=O)c1cnccn1)C1CCCCC1)C(C)(C)C)C(=O)C(=O)NC1CC1"
> 10 µM

Request: OCc1cc(C(O)CNCCCCCCOCCCCc2ccccc2)ccc1O (centres undefined)
4.3 µM

Request: "COc1ccccc1Oc1c(NS(=O)(=O)c2ccc(C(C)(C)C)cc2)nc(-c2ncccn2)nc1OCCO"
> 30 µM

Request: COc1cc2c(cc1OC)C(CCc1ccc(Cl)cc1)N(C)CC2 (centres undefined)
> 30 µM

Request: CCN1CCCC1CNC(=O)c1cc(S(=O)(=O)CC)c(N)cc1OC (centres undefined) [AMISULPRIDE]
> 30 µM

Request: C[C@]12CC[C@@H]3c4ccc(O)cc4C[C@@H](CCCCCCCCC[S+]([O-])CCCC(F)(F)C(F)(F)F)[C@H]3[C@@H]1CC[C@@H]2O (some centres undefined)
> 30 µM

Request: COc1cc(N)c(Cl)cc1C(=O)NC1CCN(Cc2ccccc2)CC1 [CLEBOPRIDE]
15 µM

Request: "CC(=O)N[C@@H](CS)C(=O)O"
> 30 µM

Request: "COc1ccc2nc3cc(Cl)ccc3c(Nc3cc(CN4CCCC4)c(O)c(CN4CCCC4)c3)c2n1"
8.1 µM

Request: "CN(C)CCc1c[nH]c2ccc(Cn3cncn3)cc12"
> 10 µM

Request: O=C1C(CC[S+]([O-])c2ccccc2)C(=O)N(c2ccccc2)N1c1ccccc1 (centres undefined)
> 10 µM

Request: CCCC(CCC)C(N)=O [VALPROMIDE]
> 30 µM

Request: CCC1(c2ccccc2)CCC(=O)NC1=O (centres undefined) [GLUTETHIMIDE]
> 10 µM

Request: "CN1CCN(C2=Nc3ccccc3Oc3ccc(Cl)cc32)CC1"
1.53 µM

Cited source: ChEMBL document CHEMBL5291721
